# target.entity: T1, human GIP receptor (human) (UniProt P48546)
# T1 sequence (looked up): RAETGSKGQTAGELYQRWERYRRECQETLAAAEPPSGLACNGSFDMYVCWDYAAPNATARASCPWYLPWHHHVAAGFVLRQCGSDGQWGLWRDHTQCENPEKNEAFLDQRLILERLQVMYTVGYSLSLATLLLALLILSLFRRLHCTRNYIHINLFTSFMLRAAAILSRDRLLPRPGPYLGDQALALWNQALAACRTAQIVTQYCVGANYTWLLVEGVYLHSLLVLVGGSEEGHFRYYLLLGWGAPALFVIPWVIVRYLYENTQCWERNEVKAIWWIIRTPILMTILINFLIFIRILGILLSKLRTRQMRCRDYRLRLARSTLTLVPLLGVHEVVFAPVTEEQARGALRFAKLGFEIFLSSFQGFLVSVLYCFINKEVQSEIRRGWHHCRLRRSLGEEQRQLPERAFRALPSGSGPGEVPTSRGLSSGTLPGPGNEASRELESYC
# experiment.summary: cell-based or functional assay
Starred links: 1 amine or outer side, 2 acyl side, 3 side chain; linkers in the order of their positions; H or OH if unused. Non-standard residues stand in square brackets, D forms with d. Groups on a side chain read outwards from the residue. No end group written: not given here. *: point of attachment. C20 diacid = O=C(O)CCCCCCCCCCCCCCCCCCC(=O)*; C18 diacid = O=C(O)CCCCCCCCCCCCCCCCC(=O)*; αMePhe(2-F) = C[C@](N)(Cc1ccccc1F)C(=O)O; γGlu = O=C(O)[C@H](CCC(=O)[*:2])N[*:1]; αMeL = CC(C)C[C@](C)(N)C(=O)O; Dab = NCC[C@H](N)C(=O)O; AEEA = NCCOCCOCC(=O)O; Aib = CC(C)(N)C(=O)O
For each record, check the reported Relative cAMP EC50: if it is below 0.3 nM write y, else write n.

- binder: "YXQGTFTSDXSKXLDKKAQXAFIEYLIEAGESSGEPPPSGS (synthetic construct; SITE 2: note = 2-Aminoisobutyric Acid; SITE 10: note = 3-(4-Pyridyl)-L-alanine; SITE 13: note = alpha-methyl-leucine; SITE 17: note = Lysine is chemically modified through conjugation of the epsilon-amino group of the Lysine side chain with (2-[2-(2-Amino-ethoxy)-ethoxy]-acetyl)) [Example 284]"
  class.name: "n"
- binder: "Y[Aib]QGTFTSDFS[Dab][αMeL]LDKK([AEEA-γGlu-C18 diacid])AQ[Aib]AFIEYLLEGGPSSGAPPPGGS-NH2 [Example 67]"
  class.name: "n"
- binder: "YXQGTFTSDXXQXLDXKAQXQFIQXLIAXGPSSGAPPPSGGGE (not fully specified; Lys acylated γGlu-C18 diacid; non-natural residues; C-amide; synthetic construct; SITE 2: note = 2-Aminoisobutyric Acid; SITE 10: note = 3-(4-Pyridyl)-L-alanine; SITE 11: note = alpha-methyl-L-serine; SITE 13: note = alpha-methyl-leucine; SITE 16: note = L-ornithine; SITE 17: note = Lysine is chemically modified through conjugation of the epsilon-amino group) [Example 1132]"
  class.name: "y"
- binder: "YXQGTXTSDXSIXLDKKAQXXFIEYLQEGGPSSGEPPPSGSEE (non-natural residues; K acylated (γGlu)2-C18 diacid; C-amide; synthetic construct; SITE 2: note = 2-Aminoisobutyric Acid; SITE 6: note = alpha-methyl-2-fluoro-L-phenylalanine; SITE 10: note = 3-(4-Pyridyl)-L-alanine; SITE 13: note = alpha-methyl-leucine; SITE 17: note = Lysine is chemically modified through conjugation of the epsilon-amino group of the Lysine) [Example 639]"
  class.name: "y"
- binder: "YXQGTFTSDFSXXLDKKAQXAFIEWLLEXGSSSGAPPPSGT (synthetic construct; SITE 2: note = 2-Aminoisobutyric Acid; SITE 12: note = L-ornithine; SITE 13: note = alpha-methyl-leucine; SITE 17: note = Lysine is chemically modified through conjugation of the epsilon-amino group of the Lysine side chain with (2-[2-(2-Amino-ethoxy)-ethoxy]-acetyl)-(gamma-Glu)) [Example 264]"
  class.name: "y"
- binder: "Y[Aib]QGTFTSDYSI[αMeL]LDKQAAK([AEEA-AEEA-γGlu-C20 diacid])AFVEWLLA[Aib]GPSSGEPPPSEG-NH2 [Example 317]"
  class.name: "n"
- binder: "YXQGTXTSDYSILLDKKAQXNFIEYLEEGGPSSGAPPPS (synthetic construct; SITE 2: note = 2-Aminoisobutyric Acid; SITE 6: note = alpha-methyl-2-fluoro-L-phenylalanine; SITE 17: note = Lysine is chemically modified through conjugation of the epsilon-amino group of the Lysine side chain with (gamma-Glu)2-CO-(CH2)16-CO2H; SITE 20: note = 2-Aminoisobutyric) [Example 416]"
  class.name: "y"
- binder: "YXQGTFTSDFSQXLDKKAQXAFIEXLIEGGPSSGAPPPSGS (synthetic construct; SITE 2: note = 2-Aminoisobutyric Acid; SITE 13: note = alpha-methyl-leucine; SITE 17: note = Lysine is chemically modified through conjugation of the epsilon-amino group of the Lysine side chain with (2-[2-(2-Amino-ethoxy)-ethoxy]-acetyl)-(gamma-Glu)-CO-(CH2) 16-CO2H; SITE 20: n) [Example 841]"
  class.name: "y"
- binder: "YXQGTFTSDFSQXLDKKAQXAFIEYLIEGGESSGAPPPSGS (synthetic construct; SITE 2: note = 2-Aminoisobutyric Acid; SITE 13: note = alpha-methyl-leucine; SITE 17: note = Lysine is chemically modified through conjugation of the epsilon-amino group of the Lysine side chain with (2-[2-(2-Amino-ethoxy)-ethoxy]-acetyl)-(gamma-Glu)-CO-(CH2) 16-CO2H; SITE 20: n) [Example 795]"
  class.name: "n"
- binder: "Y[Aib]QGT[αMePhe(2-F)]TSDYSKLLDKIAQKAFIEYLIEGGPSSGAPPPSEG-NH2 (not fully specified (residue 20)) [Example 339]"
  class.name: "y"
- binder: "YXQGTXTSDXXIXLDXKAQXEFIEXLVEGGPSSGEPPPTGE (not fully specified; Aib, αMeF(2F), 4Pal, αMeS, Orn, Me4Pal, αMeY; acylated; amide; synthetic construct; SITE 2: note = 2-Aminoisobutyric Acid; SITE 6: note = alpha-methyl-2-fluoro-L-phenylalanine; SITE 10: note = 3-(4-Pyridyl)-L-alanine; SITE 11: note = alpha-methyl-L-serine; SITE 13: note = alpha-methyl-leucine; SITE 16: note = L-ornithine; SITE 17: note = Lysine is chemically mo) [Example 1153]"
  class.name: "y"
- binder: "YXQGTFTSDXSKXLDKKAQXAFIEYLIEXGPSSGAPPPSGSEE (synthetic construct; SITE 2: note = 2-Aminoisobutyric Acid; SITE 10: note = 3-(4-Pyridyl)-L-alanine; SITE 13: note = alpha-methyl-leucine; SITE 17: note = Lysine is chemically modified through conjugation of the epsilon-amino group of the Lysine side chain with (2-[2-(2-Amino-ethoxy)-ethoxy]-acetyl)) [Example 902]"
  class.name: "y"
- binder: "YXQGTFTSDXSQXLDXKAQXAFIEXLIEXGPSSGEPPPSGSEE (non-natural residues, C18 diacid-(γGlu)2 acyl on K, C-terminal amide; synthetic construct; SITE 2: note = 2-Aminoisobutyric Acid; SITE 10: note = 3-(4-Pyridyl)-L-alanine; SITE 13: note = alpha-methyl-leucine; SITE 16: note = L-ornithine; SITE 17: note = Lysine is chemically modified through conjugation of the epsilon-amino group of the Lysine side chain with (gamma-Gl)) [Example 1093]"
  class.name: "y"
- binder: "YXQGTXTSDXXIXLDXKAAXEFIEXLIEGGPSSGAPPPSGTEE (synthetic construct; SITE 2: note = 2-Aminoisobutyric Acid; SITE 6: note = alpha-methyl-2-fluoro-L-phenylalanine; SITE 10: note = 3-(4-Pyridyl)-L-alanine; SITE 11: note = alpha-methyl-L-serine; SITE 13: note = alpha-methyl-leucine; SITE 16: note = L-ornithine; SITE 17: note = Lysine is chemically mo) [Example 725]"
  class.name: "y"
